These measurements were taken from PubChem BioAssay (NCI).

Recorded growth values for a group of molecules are listed next.
# System: RPMI-8226 leukemia
# ASSAY REMARKS: NCI-60 one-dose screen, 48 h (100 = growth as untreated, 0 = no growth, -100 = all killed)
# CONDITION CONTEXT: 10 µM unless noted
This is part of a sample that, as a whole, favours compounds with a hit. Of some 83,000 tested, about 20% had one in any assay.
Please give a number only; it is taken to be in %.

Sample answers from the record:
CCOC(=O)NC(Cc1ccccc1)c1ccccc1 (centres undefined)
98.2
Cc1nc2sc(C(=O)Nc3cccc(Cl)c3C)c(N)c2cc1C(C)O (centres undefined)
17.8
CN1CCN(C(=O)[C@@]2(C)CC[C@]3(C)CC[C@]4(C)C(=CC[C@@H]5[C@@]6(C)CC[C@H](OC(=O)c7cccnc7)C(C)(C)[C@@H]6CC[C@]54C)[C@@H]3C2)CC1
6.97
O=C(O)c1ccc(-n2cc(/C=N/Nc3ccc(Cl)cc3Cl)c(-c3ccccc3)n2)cc1
83.2

Form field: growth recorded for "C=C(C)[C@@H]1CCC=C2CC[C@]3(C)[C@H](CC[C@@H]4[C@@]5(C)CCCNC(C)(C)[C@@H]5CC[C@]43C)[C@H]21" with RPMI-8226 leukemia (enter value)
-11.9

Follow-up item: "O=C(CCc1nnc2sc(OCc3ccccc3)nn12)c1nc2ccc([N+](=O)[O-])cc2[nH]1"
106

Follow-up item: "COc1ccc2nc(-c3ccc(OC)c(OC)c3)cc(-c3nnc(SCC(=O)Nc4ccc(C(C)=O)cc4)o3)c2c1"
90.8

Follow-up item: "COc1ccc(C(=S)c2cc(OC)c(OC)c(OC)c2)cc1OC(=O)CCl"
26.9

Follow-up item: "COC(=O)CCc1n(Cc2ccc3ccccc3c2)c2ccccc2[n+]1Cc1ccc2ccccc2c1"
-21.3

Follow-up item: "O=C(O)c1cn(C2CC2)c2cc(N3CCN(C(=O)CSc4nnc(-c5ccc(Cl)cc5)n4-c4ccccc4)CC3)c(F)cc2c1=O"
102

Follow-up item: "COC(=O)[C@]1(C)CCC[C@]2(C)[C@H]3C[C@H]4C(C(C)C)=C[C@]3(CC[C@H]21)[C@@H]1C(=O)N(CCC#N)C(=O)[C@@H]14"
62

Follow-up item: "COc1ccc(-c2cs/c(=N\N=C\c3ccc(O)cc3O)n2/N=C/c2ccc(O)cc2O)cc1"
-25.9

Follow-up item: "Cn1cc(-c2ccc3c(c2)ncn3-c2ccc(CC(=O)Nc3cc(C(C)(C)C)on3)cc2)cn1"
76.8

Follow-up item: OCCNc1nc(NCCO)nc(Nc2ccc(C3=NN(c4cc(Cl)cc(Cl)c4)C(c4ccc(Cl)cc4)C3)cc2)n1 (centres undefined)
-8.1

* * *

# Tested on: T-47D breast
# ASSAY REMARKS: NCI-60 one-dose screen, 48 h (100 = growth as untreated, 0 = no growth, -100 = all killed)
# CONDITION CONTEXT: 10 µM unless noted
About 83,000 compounds went through this panel and 20% of them were active in at least one assay; those are over-represented in the sample as a whole.
MEASUREMENT KIND: growth (%)
Please give a number only; it is taken to be in %.

Cc1ccc(CS/C(=C\c2ccc([N+](=O)[O-])cc2)C(=O)c2ccc(F)cc2)cc1
49.6
Cc1nc2sc(C(=O)Nc3cccc4ccccc34)c(N)c2cc1C(C)O (centres undefined)
49.4
CC[C@H](Nc1ncnc2nc[nH]c12)c1nc2cccc(CC(=O)c3ccc(C(=O)NO)cc3)c2c(=O)n1-c1ccccc1
50.7
C=C1C(=O)O[C@H]2[C@H]1CC/C(COC(=O)c1cccnc1N)=C\CC[C@@]1(C)O[C@@H]21
50.7
Cn1cc(-c2ccc3c(c2)ncn3-c2ccc(CC(=O)Nc3cc(C(C)(C)C)on3)cc2)cn1
35.5

Any idea what growth was measured for OCCNc1nc(NCCO)nc(Nc2ccc(C3=NN(c4cc(Cl)cc(Cl)c4)C(c4ccc(C(F)(F)F)cc4)C3)cc2)n1 (centres undefined) ?
53.5

Follow-up item: "O=C1C(Cl)=C(Nc2ccc3c(c2NC2=C(Cl)C(=O)c4ccccc4C2=O)C(=O)c2ccccc2C3=O)C(=O)c2ccccc21"
10.5

Follow-up item: COc1cc(C2CC(c3ccc(Nc4nc(NCCO)nc(NCCO)n4)cc3)=NN2c2cc(Cl)cc(Cl)c2)cc(OC)c1OC (centres undefined)
75.4

Follow-up item: "O=C(/C(=C/c1ccc([N+](=O)[O-])cc1)SCc1ccc(Cl)cc1)c1ccc(F)cc1"
36.4
